The measured values listed here are drawn from patent US8753644B2.

Property: solubility; scope: individual sequences
# method: Solubility of peptides
No end group written: not given here.
assay_endpoint: solubility

[[record]]
primary_sequence = "KFIPTLVAAVKQAYAAKQ [Bio03A]"
result = "> 20 mg/mL"

[[record]]
primary_sequence = "KPEVKYAVFEAALTKAIT [Rye09B1]"
result = "10 mg/mL"

[[record]]
primary_sequence = "KDSDEFIPMKSSWGAIWR [Ber02B]"
result = "> 20 mg/mL"


----------
# method: Solubility of peptides
No end group written: not given here.
assay_endpoint: solubility (µg/mL)

[[record]]
primary_sequence = "NAGFKAAVAAAANAPPK [Rye05C]"
assay_endpoint = "solubility"
measure_unit = "µg/mL"
rel = "="
quantitative_result = 10000

[[record]]
primary_sequence = "FIPMKSSWGA [Ber02]"
assay_endpoint = "solubility"
measure_unit = "µg/mL"
rel = ">"
quantitative_result = 20000

[[record]]
primary_sequence = "KYDAYVATLTEALR [Bio02A]"
assay_endpoint = "solubility"
measure_unit = "µg/mL"
rel = ">"
quantitative_result = 20000

[[record]]
primary_sequence = "KKPEVKYAVFEAALTKAIT [Rye09B2]"
assay_endpoint = "solubility"
measure_unit = "µg/mL"
rel = "="
quantitative_result = 10000

[[record]]
primary_sequence = "WGAIWRIDTPDKL [Tim04A]"
assay_endpoint = "solubility"
measure_unit = "µg/mL"
rel = "="
quantitative_result = 2000

[[record]]
primary_sequence = "KSSWGAIWRIDPKKPLK [Ber02C]"
assay_endpoint = "solubility"
measure_unit = "µg/mL"
rel = ">"
quantitative_result = 20000

[[record]]
primary_sequence = "PEVKYAVFEAALTKAIT [Rye09B]"
assay_endpoint = "solubility"
measure_unit = "µg/mL"
rel = "="
quantitative_result = 5000

[[record]]
primary_sequence = "LKKAVTAMSEAEK [Bio04A]"
assay_endpoint = "solubility"
measure_unit = "µg/mL"
rel = ">"
quantitative_result = 20000

